assay summary: total protein half-life in vivo (active degradation + dilution); higher = more stable protein
measurement conditions: wild type E. coli NCM3722; growth: C-lim chemostat; doubling time 12 h
reported endpoint: total protein half-life in vivo
Record the result as number plus unit.

Query (sequence): MDLIYFLIDFILHIDVHLAELVAEYGVWVYAILFLILFCETGLVVTPFLPGDSLLFVAGALASLETNDLNVHMMVVLMLIAAIVGDAVNYTIGRLFGEKLFSNPNSKIFRRSYLDKTHQFYEKHGGKTIILARFVPIVRTFAPFVAGMGHMSYRHFAAYNVIGALLWVLLFTYAGYFFGTIPMVQDNLKLLIVGIIVVSILPGVIEIIRHKRAAARAAK [P0ABP6] ; field requested: total protein half-life in vivo
9.21 h

Try "MEQRHITGKSHWYHETQSSTTEYDVLPLVPEAAKVSDPFLLDVILEKETLAPFLSWLDPARVLAVDLFPDQLTVTRSQTFTAYERLSTALTVAQVCGVQRLCNYYSARLTPLPGPDSTRESNHRLAQITQYARQLASSPSIIDNRSRQHLNDVGLTAWDCVIISQIIGFIGFQARTIATFQAYLGHPVRWLPGLEIQNYADASLFADESLRWRSSYEVEKLPEEHTKSSTAELCQLAEILSLHPISLSLLEKLLNSTRGNTQPDNQLAALLCARINGSPACFATCMDSSNEYKKISTLMRKGENEINQWADRHSVERATVQAIQWLTRAPDRFSAAQFSPLLEHEKSSTQIINLLVWSGLCGWINRLKIALGETY" next.
1.93 h

Next entry: "MDHAIYTAMGAASQTLNQQAVTASNLANASTPGFRAQLNALRAVPVEGLSLPTRTLVTASTPGADMTPGKMDYTSRPLDVALQQDGWLAVQTADGSEGYTRNGSIQVDPTGQLTIQGHPVIGEAGPIAVPEGAEITIAADGTISALNPGDPANTVAPVGRLKLVKATGSEVQRGDDGIFRLSAETQATRGPVLQADPTLRVMSGVLEGSNVNAVAAMSDMIASARRFEMQMKVISSVDDNAGRANQLLSMS"
3.33 h

Follow-up entry: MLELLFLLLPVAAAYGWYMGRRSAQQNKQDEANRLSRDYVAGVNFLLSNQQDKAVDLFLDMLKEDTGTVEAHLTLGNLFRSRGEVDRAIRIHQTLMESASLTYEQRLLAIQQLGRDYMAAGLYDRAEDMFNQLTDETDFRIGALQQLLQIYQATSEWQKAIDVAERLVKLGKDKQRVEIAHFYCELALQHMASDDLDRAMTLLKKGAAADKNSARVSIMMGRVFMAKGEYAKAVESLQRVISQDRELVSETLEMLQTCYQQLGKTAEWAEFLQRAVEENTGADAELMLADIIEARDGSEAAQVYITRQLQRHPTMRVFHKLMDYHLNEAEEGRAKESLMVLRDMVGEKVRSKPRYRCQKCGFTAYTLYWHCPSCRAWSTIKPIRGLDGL [P0AB58]
12.2 h

Would you kindly repeat that for "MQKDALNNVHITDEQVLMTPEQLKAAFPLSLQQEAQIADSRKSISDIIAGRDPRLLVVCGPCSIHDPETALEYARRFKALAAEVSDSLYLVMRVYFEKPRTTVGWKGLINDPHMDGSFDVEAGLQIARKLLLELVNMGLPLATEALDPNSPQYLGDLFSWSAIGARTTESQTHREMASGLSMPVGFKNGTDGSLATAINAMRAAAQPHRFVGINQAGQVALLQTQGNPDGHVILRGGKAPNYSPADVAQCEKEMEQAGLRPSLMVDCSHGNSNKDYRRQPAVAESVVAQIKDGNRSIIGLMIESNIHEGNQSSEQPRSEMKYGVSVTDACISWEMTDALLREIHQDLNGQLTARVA" ?
3.84 h
